EXPERIMENTAL PROTOCOL: Inhibitory concentration against Streptococcus pneumoniae Enoyl-ACP reductase
ASSAY METRIC: IC50

Endpoint output: IC50 of "CN(Cc1cc2ccccc2n1C)C(=O)/C=C/c1ccc(N)cc1" . Value?
> 30 µM

---

EXPERIMENTAL PROTOCOL: Concentration required for the 50% inhibition of Enoyl-ACP reductase from Streptococcus pneumoniae was determined.
ASSAY METRIC: IC50

Quick check: IC50 of "Oc1cc(Cl)ccc1Oc1ccc(Cl)cc1Cl" ?
> 30 µM

---

Form field: log10 of IC50 (one value per entry).
ASSAY TARGET: Enoyl-[acyl-carrier-protein] reductase [NADPH] FabI (Staphylococcus aureus)
Sequence (Q6GI75 whole entry): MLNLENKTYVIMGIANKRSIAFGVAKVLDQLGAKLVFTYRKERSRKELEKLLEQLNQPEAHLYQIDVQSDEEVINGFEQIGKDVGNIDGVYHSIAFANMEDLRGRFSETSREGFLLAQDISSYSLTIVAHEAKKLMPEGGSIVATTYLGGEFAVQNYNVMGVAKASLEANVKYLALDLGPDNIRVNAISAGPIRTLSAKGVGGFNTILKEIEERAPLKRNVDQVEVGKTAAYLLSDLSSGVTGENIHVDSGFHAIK
Hi team, quick reminder: these entries are log10 of IC50 (µM).

Known results for compounds:
> print(dat)
                                   compound                              assay.target  recorded.number
1     CN(Cc1cc2ccccc2n1C)C(=O)/C=C/c1cccnc1  Enoyl-[acyl-carrier-protein] reductase [NADPH] FabI (Staphylococcus aureus)             1.15
2  CN(Cc1cc2ccccc2n1C)C(=O)/C=C/c1ccc(N)nc1  Enoyl-[acyl-carrier-protein] reductase [NADPH] FabI (Staphylococcus aureus)             0.38
3  COC(=O)CC1Nc2ccc(C(=O)N(C)Cc3cc4ccccc4n3C)cc2CN(C)C1=O (stereo not drawn)  Enoyl-[acyl-carrier-protein] reductase [NADPH] FabI (Staphylococcus aureus)             1.22
4  CC(=O)N(C)Cc1cc(C(=O)N(C)Cc2cc3ccccc3n2C)ccc1N  Enoyl-[acyl-carrier-protein] reductase [NADPH] FabI (Staphylococcus aureus)             0.83
5     CN(Cc1cc2ccccc2n1C)C(=O)CCc1ccc(N)nc1  Enoyl-[acyl-carrier-protein] reductase [NADPH] FabI (Staphylococcus aureus)             1.97

log10 of IC50 of "COC(=O)C[C@H]1Nc2ccc(C(=O)N(C)Cc3cc4ccccc4n3C)cc2CN(C)C1=O" on Enoyl-[acyl-carrier-protein] reductase [NADPH] FabI (Staphylococcus aureus)?
1.00

Repeat for the following compound: "CN(Cc1cc2ccccc2n1C)C(=O)c1ccc2c(c1)CN(C)C(=O)[C@H](C(=O)O)N2"
2.83
